Recorded values, source patent US10716869B2.

# target.of.assay: EGFR T790M/L858R (human, 672-1210) (Homo sapiens, UniProt P00533, L858R/T790M)
# Construct: (human, 672-1210)
# Sequence (P00533 672-1210 T790M/L858R): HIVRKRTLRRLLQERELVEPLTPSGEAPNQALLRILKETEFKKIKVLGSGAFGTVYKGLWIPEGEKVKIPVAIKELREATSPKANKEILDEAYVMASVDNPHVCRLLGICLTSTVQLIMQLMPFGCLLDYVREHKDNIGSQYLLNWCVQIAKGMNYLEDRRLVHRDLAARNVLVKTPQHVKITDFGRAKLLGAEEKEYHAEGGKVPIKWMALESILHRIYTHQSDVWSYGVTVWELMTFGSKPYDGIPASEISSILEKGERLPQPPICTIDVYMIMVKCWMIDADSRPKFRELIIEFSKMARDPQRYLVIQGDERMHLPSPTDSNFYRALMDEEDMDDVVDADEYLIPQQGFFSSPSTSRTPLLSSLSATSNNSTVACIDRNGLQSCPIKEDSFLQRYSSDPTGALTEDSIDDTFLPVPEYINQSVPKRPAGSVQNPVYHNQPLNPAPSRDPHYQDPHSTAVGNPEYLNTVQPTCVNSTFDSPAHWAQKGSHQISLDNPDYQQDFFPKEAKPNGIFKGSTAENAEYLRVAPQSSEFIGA
# measurement.notes: radiometric protein kinase assay (33PanQinase Activity Assay)
# condition.context: Tests 1-3 are repeat determinations; read-out: Biochemical IC50 EGFR L858R/T790M
# Procedure: The compounds were tested in 100% DMSO, all recombinant protein kinases and substrates with respective concentration are described in table 1.
measurement.name: IC50 (nM)

[P] CC(C)[C@@H]1NC(=O)Cc2ccc(Cl)cc2Nc2ncnc3cc(OCCF)c(cc23)OCCCNC1=O
[Q] CC(C)[C@H]1NC(=O)Cc2ccc(Cl)cc2Nc2ncnc3cc(OCCF)c(cc23)OCCCNC1=O
Could you tell me which of these two has the smaller IC50 figure? First: P Second: Q Lab note: record the label of whichever item you select. Q
